- Test system: SD rats
- assay_summary: Rat formalin test
- Type: in vivo
- measurement_context: po, 30 mg/kg orally once, pain behavior time from 15 to 30 minutes after formalin administration vs vehicle group, read-out: Inhibition ratio (pain behavior inhibition ratio)
Structures can show the parent of a compound that is named as a salt.
measured_metric: inhibition in vivo at 30 mg/kg

Ask: Look up inhibition in vivo at 30 mg/kg: `O=C(N[C@@H]1CCN(c2cncc(C(F)(F)F)c2)C1)[C@H]1C[C@@H]1c1nc2ccccc2o1`
Reply: ≥ 20%

Ask: Look up inhibition in vivo at 30 mg/kg: `O=C(N[C@@H]1CCN(c2ccc(F)c(C(F)(F)F)c2)C1)[C@H]1C[C@@H]1c1nc2ccccc2[nH]1`
Reply: < 10%

Ask: Look up inhibition in vivo at 30 mg/kg: O=C(Cc1ccc2cccnc2c1)N[C@@H]1CCN(c2cncc(C(F)(F)F)c2)C1 [Example 79, hydrochloride]
Reply: < 10%

Ask: Look up inhibition in vivo at 30 mg/kg: `O=C(Cc1ccc(C2CC2)cc1)N[C@@H]1CCN(c2cncc(C(F)(F)F)c2)C1`
Reply: ≥ 20%

Ask: Look up inhibition in vivo at 30 mg/kg: `O=C(N[C@@H]1CCN(c2cncc(C(F)(F)F)c2)C1)[C@H]1C[C@@H]1c1nc2cc(F)ccc2o1`
Reply: ≥ 20%

Ask: Look up inhibition in vivo at 30 mg/kg: `O=C(N[C@@H]1CCN(c2cnc(C(F)(F)F)nc2)C1)[C@H]1C[C@@H]1c1nc2ccccc2[nH]1`
Reply: < 10%

Ask: Look up inhibition in vivo at 30 mg/kg: `CC(C)(O)c1ccc(CC(=O)N[C@@H]2CCN(c3cncc(C(F)(F)F)c3)C2)cc1`
Reply: < 10%

Ask: Look up inhibition in vivo at 30 mg/kg: COC(=O)C1(NC(=O)Cc2ccc3cc[nH]c3c2)CCN(c2cncc(C(F)(F)F)c2)C1 (stereo not drawn)
Reply: < 10%

Ask: Look up inhibition in vivo at 30 mg/kg: `O=C(Cc1ccc2cc[nH]c2c1)N[C@@H]1CCN(c2cncc(C(F)(F)F)c2)C1`
Reply: ≥ 20%
